Target: recombinant human dipeptidyl peptidase-IV (DPP4) (Homo sapiens)
Construct: purchased Sigma–Aldrich Co
Sequence (P27487 whole entry): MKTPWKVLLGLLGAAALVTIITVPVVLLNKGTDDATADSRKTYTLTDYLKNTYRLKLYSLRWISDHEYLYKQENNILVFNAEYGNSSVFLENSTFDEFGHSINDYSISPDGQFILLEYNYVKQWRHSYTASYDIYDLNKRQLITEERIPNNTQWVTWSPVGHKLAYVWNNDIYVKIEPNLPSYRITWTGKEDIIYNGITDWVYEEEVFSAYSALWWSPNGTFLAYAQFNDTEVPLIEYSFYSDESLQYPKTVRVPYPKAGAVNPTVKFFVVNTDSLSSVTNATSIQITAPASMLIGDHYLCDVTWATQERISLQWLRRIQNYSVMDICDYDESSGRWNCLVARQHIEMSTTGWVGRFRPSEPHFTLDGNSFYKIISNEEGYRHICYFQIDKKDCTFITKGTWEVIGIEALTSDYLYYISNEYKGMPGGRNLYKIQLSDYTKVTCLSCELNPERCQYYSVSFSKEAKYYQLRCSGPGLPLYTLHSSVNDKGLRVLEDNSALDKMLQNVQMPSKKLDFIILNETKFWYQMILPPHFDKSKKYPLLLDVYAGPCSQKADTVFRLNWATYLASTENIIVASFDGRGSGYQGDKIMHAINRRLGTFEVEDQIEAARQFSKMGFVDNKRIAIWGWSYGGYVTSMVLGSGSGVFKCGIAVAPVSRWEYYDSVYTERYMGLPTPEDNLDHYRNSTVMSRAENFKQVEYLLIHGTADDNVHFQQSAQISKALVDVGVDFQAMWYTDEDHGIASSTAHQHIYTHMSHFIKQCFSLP
Assay: DPP4 inhibitory activity and IC50 (GP-pNA substrate, absorbance of pNA at 405 nm)
Type: biochemical
Details: synthetic peptides
Procedure: The DPP4 inhibitory activity was studied following Hung et al.. All the reagents and samples were dissolved in 0.1 M Tris-HCl buffer, pH 8. First, 25 µL of 1.6 mM GP-pNA was premixed with 25 µL of sample and incubated at 37 °C for 10 min. Then, 50 µL of 0.5 U/µL DPP4 was added. The reaction was set at 37 °C for one hour. […] Using a PowerWave XS (Biotek®, Winooski, VT, USA) 96-well microplate reader, the absorbance of pNA, which was generated by the DPP4 and GP-pNA reactions, was measured at 405 nm. […]
Where no end group is shown, it is not given here.
Observed Property: pIC50
Note: pIC50 values are expressed as the negative base-10 logarithm of concentration in M.

// assay recombinant human dipeptidyl peptidase-IV (DPP4) (Homo sapiens), entry VPSGAPF-OH [VF7, VPSGAPF] , pIC50 value = 3.82

// assay recombinant human dipeptidyl peptidase-IV (DPP4) (Homo sapiens), entry LFPNAGY-OH [LY7, LFPNAGY] , pIC50 value = 3.04

// assay recombinant human dipeptidyl peptidase-IV (DPP4) (Homo sapiens), entry MLPQNF-OH [MF6, MLPQNF] , pIC50 value = 3.02

// assay recombinant human dipeptidyl peptidase-IV (DPP4) (Homo sapiens), entry RATLPF-OH [RF6, RATLPF] , pIC50 value = 2.78

---

Target: angiotensin-I-converting enzyme (ACE) from rabbit lungs (Oryctolagus cuniculus)
Sequence (P12822 34-1310): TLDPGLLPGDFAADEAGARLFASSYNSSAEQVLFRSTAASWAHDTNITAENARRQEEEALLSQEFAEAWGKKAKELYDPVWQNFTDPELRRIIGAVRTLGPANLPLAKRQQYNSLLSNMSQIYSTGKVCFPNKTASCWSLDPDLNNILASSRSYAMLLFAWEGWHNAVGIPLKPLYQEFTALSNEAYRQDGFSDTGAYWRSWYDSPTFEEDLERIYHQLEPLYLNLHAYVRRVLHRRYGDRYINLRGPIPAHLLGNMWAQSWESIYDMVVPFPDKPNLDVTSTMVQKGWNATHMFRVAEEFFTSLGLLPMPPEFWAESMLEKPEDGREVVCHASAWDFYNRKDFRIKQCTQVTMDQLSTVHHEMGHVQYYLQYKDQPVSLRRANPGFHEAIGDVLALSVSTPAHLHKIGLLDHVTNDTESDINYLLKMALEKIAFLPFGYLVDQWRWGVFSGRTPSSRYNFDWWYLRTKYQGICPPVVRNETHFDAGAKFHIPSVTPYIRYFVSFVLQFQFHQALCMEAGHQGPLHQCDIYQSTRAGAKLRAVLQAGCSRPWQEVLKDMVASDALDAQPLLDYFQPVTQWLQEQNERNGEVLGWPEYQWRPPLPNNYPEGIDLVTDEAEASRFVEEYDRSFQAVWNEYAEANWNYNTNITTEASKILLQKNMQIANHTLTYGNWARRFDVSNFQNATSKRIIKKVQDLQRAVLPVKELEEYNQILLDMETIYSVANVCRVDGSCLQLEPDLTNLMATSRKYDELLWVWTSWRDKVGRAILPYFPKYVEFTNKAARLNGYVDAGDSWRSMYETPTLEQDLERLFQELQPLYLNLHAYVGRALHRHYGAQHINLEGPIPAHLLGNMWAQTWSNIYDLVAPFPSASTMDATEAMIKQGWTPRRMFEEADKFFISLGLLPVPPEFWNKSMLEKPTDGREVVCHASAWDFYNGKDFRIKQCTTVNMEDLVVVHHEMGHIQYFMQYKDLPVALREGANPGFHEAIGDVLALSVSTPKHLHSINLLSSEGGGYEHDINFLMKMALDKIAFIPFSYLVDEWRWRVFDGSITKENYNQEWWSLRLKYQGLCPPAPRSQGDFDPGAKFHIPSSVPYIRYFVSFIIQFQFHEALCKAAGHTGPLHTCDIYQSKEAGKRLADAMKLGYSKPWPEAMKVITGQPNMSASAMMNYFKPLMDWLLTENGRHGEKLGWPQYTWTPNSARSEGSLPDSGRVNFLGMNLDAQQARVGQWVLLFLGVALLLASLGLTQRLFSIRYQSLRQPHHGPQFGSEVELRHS
Where a SMILES comes first, the peptide text is derived from it.
Observed Property: pIC50
Note: pIC50 values are expressed as the negative base-10 logarithm of concentration in M.

Given item CSCC[C@H](N)C(=O)N1CCC[C@H]1C(=O)N[C@@H](Cc1c[nH]cn1)C(=O)N[C@@H](Cc1c[nH]c2ccccc12)C(=O)O [MW4, MPHW] (H-MPHW-OH; N-terminus assumed) , the value recorded as its pIC50 is 3.76
